Tested System: c-Src SH2;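 note: peptide library displayed on the E. coli surface as eCPX fusions, selected cells deep-sequenced, score is each peptide's frequency after selection divided by its frequency in the input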
Protocol Text: SH2 binding enrichment of the phosphorylated peptide, bacterial display (enrichment ratio); higher = better substrate or ligand; peptides without Tyr show the background
Lab note: anything with SH2 binding enrichment at or over 0.5 counts as Met; the rest go in Not met.

• GSPAPYRRRKR [MBD1_Y403_P401A] = Not met
• NQNIGYKLGHR [KCNN3_Y268] = Not met
• YAFQLYDLDRD [CHP2_Y123] = Met
• GAPATYEGDAR [CACNA1A_Y1013] = Met
• KSSDVYVSYDC [SORL1_Y136_Y141C] = Met
• LTQRTYMLENA [GPAA1_Y49_S51L] = Met
• IVAEFYDNLPH [DEGS1_Y284_A280V_YF] = Met
• QWPGPYDRPGA [HNRNPH2_Y210_R206W] = Met
• VRSVDYVLFRS [FAM189B_Y361] = Met
• FRGFSYDDIPD [TMEM230_Y112_YF] = Met
• KNNDGYTDFAE [MCFD2_Y135_I136T_YF] = Met
• LVGTPYWMAPE [PAK5_Y608] = Met
• HKNNNYEPNLF [BRCA2_Y57] = Not met
• SSDKVYAHQMV [MLH1_Y379] = Not met
• RALRHYYKLNI [ETV6_Y401] = Met
• SIIKDSFHRGA [GATM_Y203_Y203S] = Not met
• KICDWYQRQRP [KRT14_Y151_R148C] = Met
• AQVDTYCRHNY [HLA-DRB1_Y107_A103Q] = Not met
• FISLIYTNFEA [GSTP1_Y109_YF] = Met
• VEDQYYCVDCY [FHL1_Y208] = Met
• APGDAYGDAGF [SYP_Y250_YF] = Not met
• CKLFQYFLDHL [ATRX_Y1849_YF] = Met
• TYTVSYLPDMS [FLNC_Y1602] = Not met
• NSRYTCKLEVK [USH2A_Y3747_Y3747C] = Not met
• SNNFIYTTLGV [FAM83B_Y639_K640T_YF] = Met
• IFLADCRIMEG [ALOX12B_Y318_Y318C_YF] = Not met
• VDEVLYEDSSA [MTHFS_Y197_T202A] = Met
